# System: NCI-H295R
# Run Description: area under concentration-response curve (viability) (AUC (a.u.)); higher = less active
# Setup Conditions: 48 h
area under concentration-response curve below 500 gives Not fulfilled; area under concentration-response curve at or above it gives Fulfilled.

| Compound | Assigned Label |
| --- | --- |
| OC[C@H]1O[C@@H]2[C@@H](OC\3=N\C(=N)\C=C/[N@@]23)[C@@H]1O | Not fulfilled |
| CNc1nccc(-c2cccnc2Oc2cc(C(=O)Nc3cccc(C(F)(F)F)c3)ccc2C)n1 | Not fulfilled |
| O=C(Nc1c(Cl)cncc1Cl)c1ccc(OC(F)F)c(OCC2CC2)c1 | Fulfilled |
| COC1=C(NC2=NC=C(Cl)C(=N2)N[C@@H]3[C@H]\4C[C@@H](\C=C4)[C@H]3C(N)=O)C=CC5=C1CCC(CC5)N6CCOCC6 (some centres not stated) | Not fulfilled |
| CCC(=C/[C@H](C)C/C=C/C(C)=C/[C@@H](C)C(=O)[C@@H](C)[C@H](O)[C@@H](C)C/C(C)=C/C(=O)O)/C=C/[C@@H]1OC(=O)C=C[C@@H]1C | Not fulfilled |
| Cc1cnc(NC(=O)C2=C(O)c3ccccc3S(=O)(=O)N2C)s1 | Not fulfilled |
| O=C(COCC(=O)N1CCN(C(c2ccccc2)c2ccccc2)CC1)Nc1ccc(Cl)cc1C(=O)O | Fulfilled |
| CN[C@@H](C)C(=O)N[C@H](C(=O)N1CCC[C@H]1c1nc(C(=O)c2ccc(F)cc2)cs1)C1CCCCC1 | Fulfilled |
| C[N+](C)(C)CC(=O)O | Fulfilled |
| C[N]1C=C(C2=CC=CC=C12)/C3=C(/C(=O)NC3=O)C4=C[N](C)C5=CC(=CC=C45)[N+]([O-])=O | Not fulfilled |
| OC1CCC(Nc2ncc3nc(Nc4c(F)cc(F)cc4F)n([C@@H]4CCOC4)c3n2)CC1 (some centres not stated) | Not fulfilled |
| O=C1Cc2cc(C(=O)NC3C[C@H]4CC[C@@H](C3)N4[S+](=O)([O-])CC3CCN(CCCC(F)(F)F)CC3)c(Cl)cc2N1 (some centres not stated) | Fulfilled |
| COC1=CC=C2[C@H]3CC[C@]4(C)[C@H](CC[C@H]4[C@@H]3CCC2=C1)NCCCCCCN5C(=O)\C=C/C5=O | Fulfilled |
| CO[C@H]1/C=C/O[C@@]2(C)Oc3c(C)c(O)c4c(O)c(c5c(nc6cc(C)ccn65)c4c3C2=O)NC(=O)/C(C)=C\C=C\[C@H](C)[C@H](O)[C@@H](C)[C@@H](O)[C@@H](C)[C@H](OC(C)=O)[C@@H]1C | Fulfilled |
| CN1CCN([C@H]2CC[C@H](n3cc(-c4ccc(Oc5ccccc5)cc4)c4c(N)ncnc43)CC2)CC1 | Not fulfilled |
| C[C@H]1[C@H](OC(=O)CCC(=O)O)O[C@@H]2O[C@@]3(C)CC[C@H]4[C@H](C)CC[C@@H]1[C@@]24OO3 | Fulfilled |
| COc1cc(OC)cc(N(CCNC(C)C)c2ccc3ncc(-c4cnn(C)c4)nc3c2)c1 | Fulfilled |
| CC(N[C@H]1CCCC[C@@H]1NC(=O)c1ccc(Cl)cc1)c1cccc2ccccc12 (some centres not stated) | Not fulfilled |
| C[S+](=O)([O-])c1ccc(-c2nnc(/C=C/c3nnc(-c4ccc(C#N)cc4)o3)n2-c2ccccc2Cl)nc1 | Fulfilled |
| CC1CCN(c2cc(N3CCN(C)CC3)ccc2NC(=O)c2cc(C#N)c[nH]2)CC1 | Fulfilled |
| CC/C(=C(/CC)c1ccc(O)cc1)c1ccc(O)cc1 | Fulfilled |
| COc1cc(C(=O)O)ccc1NC(=O)[C@@H]1N[C@@H](CC(C)(C)C)[C@](C#N)(c2ccc(Cl)cc2F)[C@H]1c1cccc(Cl)c1F | Fulfilled |
| CN(C[C@@H]1COCCO1)[S+]([O-])(=O)NC2=CC3=C(C=C2)\C=C/C4=C(C=C(C=N4)C5=C[N](C)N=C5)C3=O | Fulfilled |

Origin of measurements: the supplement of paper PMC10949913
